I'd appreciate it if you could supply zone of inhibition at 0.4 mg/disc values for the items below.
System: B. subtilis ATCC 6633
procedure_summary: direct antimicrobial activity (disc-diffusion)
Assay type: cell-based
test_context: Bacillus subtilis, ATCC6633; 0.4 mg per disc, 9 mm disc (linezolid 0.03 mg, 6 mm disc); - no zone; read-out: Diameter of inhibition zone
Please give a number only; it is taken to be in mm.

[in] Could you share which zone of inhibition at 0.4 mg/disc value was measured for OB(O)c1c(F)c(F)c(F)c(F)c1B(O)O ?
[out] 12

[in] Which zone of inhibition at 0.4 mg/disc value is on record for OB(O)c1ccc(B(O)O)cc1 ?
[out] 17

[in] What value of zone of inhibition at 0.4 mg/disc has been reported for the following compound? OB(O)c1ccccc1S
[out] 26

[in] Record request: zone of inhibition at 0.4 mg/disc value, item OB(O)c1ccc(F)cc1B(O)O
[out] 18

[in] What measured zone of inhibition at 0.4 mg/disc goes with OB(O)c1ccc(B(O)O)c(F)c1F ?
[out] 28

[in] zone of inhibition at 0.4 mg/disc for OB(O)c1cccc(B(O)O)c1 ?
[out] 18

[in] Looking for the measured zone of inhibition at 0.4 mg/disc of OB(O)c1cc(C(F)(F)F)c(B(O)O)cc1C(F)(F)F , can you help?
[out] 12

[in] Consider the compound OB(O)c1cc(C(F)(F)F)cc(B(O)O)c1F and give its measured zone of inhibition at 0.4 mg/disc.
[out] 20

[in] Quick check: zone of inhibition at 0.4 mg/disc of OB(O)c1ccccc1B(O)O ?
[out] 24

[in] Could you tell me which zone of inhibition at 0.4 mg/disc is on file for OB(O)c1ccsc1B(O)O ?
[out] 15

[in] Any idea what its zone of inhibition at 0.4 mg/disc is? The compound is OB(O)c1cc(I)c(B(O)O)cc1I
[out] 20

[in] Item OB(O)c1ccc(B(O)O)c(B(O)O)c1 has what recorded zone of inhibition at 0.4 mg/disc?
[out] 18

[in] Data request, read-out zone of inhibition at 0.4 mg/disc, for OB(O)c1cc(F)c(B(O)O)c(F)c1F
[out] 13

[in] // lookup zone of inhibition at 0.4 mg/disc for OB(O)c1cc(F)cc(B(O)O)c1
[out] 17

[in] # input compound: OB(O)c1cc(F)c(B(O)O)c(F)c1 ; wanted: its zone of inhibition at 0.4 mg/disc
[out] 15

[in] // query zone of inhibition at 0.4 mg/disc value for entry C[Si](C)(C)c1cc(B(O)O)c([Si](C)(C)C)cc1B(O)O
[out] 11

[in] Quick check: zone of inhibition at 0.4 mg/disc of OB(O)c1ccc(B(O)O)c(F)c1 ?
[out] 23

[in] Can you look up the measured zone of inhibition at 0.4 mg/disc of OB(O)c1cc(F)c(B(O)O)cc1F for me?
[out] 28

----------
System: S. aureus ATCC 6538P
procedure_summary: direct antimicrobial activity (disc-diffusion, MIC, MBC)
Type: cell-based
test_context: Staphylococcus aureus, ATCC6538P; 0.4 mg per disc, 9 mm disc (linezolid 0.03 mg, 6 mm disc); - no zone; read-out: Diameter of inhibition zone
parameter_measured: zone of inhibition at 0.4 mg/disc (mm)
# output: bare number, implied unit mm

[in] May I ask what zone of inhibition at 0.4 mg/disc has been recorded for OB(O)c1ccccc1S ?
[out] 23

[in] Would you kindly share the measured zone of inhibition at 0.4 mg/disc for OB(O)c1c(F)c(F)c(F)c(F)c1B(O)O ?
[out] 20

[in] I'd like to know its zone of inhibition at 0.4 mg/disc. The compound in question is OB(O)c1ccc(C(F)(F)F)cc1B(O)O
[out] 17

[in] I'd like to know its zone of inhibition at 0.4 mg/disc. The compound in question is OB(O)c1cc(Br)c(B(O)O)cc1Br
[out] 14

[in] Data request, read-out zone of inhibition at 0.4 mg/disc, for OB(O)c1ccc(Br)c(B(O)O)c1
[out] 14

[in] What does the record list as zone of inhibition at 0.4 mg/disc for CC(=O)NC[C@H]1CN(c2ccc(N3CCOCC3)c(F)c2)C(=O)O1 [LIN, linezolid, reference compound] ?
[out] 25

[in] Data request, read-out zone of inhibition at 0.4 mg/disc, for OB(O)c1cc(I)c(B(O)O)cc1I
[out] 19
